Here, each record is paired with measured growth data.
system: TK-10 renal; assay: NCI-60 one-dose screen, 48 h (100 = growth as untreated, 0 = no growth, -100 = all killed); conditions: 10 µM unless noted
This is part of a sample that, as a whole, favours compounds with a hit. Of some 83,000 tested, about 20% had one in any assay.
Provide the reading as a plain figure in %.

// known answers, use as guide
| Compound | Assay system | Assay value |
| --- | --- | --- |
| CS(=O)(=O)c1ccc(C(=O)N/N=C/c2cccc3ccccc23)cc1 | TK-10 renal | 85.1 |
| COc1cc(C2CC(c3ccc(Cl)cc3)=NN2C(C)=O)ccc1Oc1nc2c(c(=O)n(C)c(=O)n2C)n1C (centres undefined) | TK-10 renal | 110 |
| Clc1nnc2c3ccccc3ccn12 | TK-10 renal | 106 |
| CN(C)c1ccc(C2(Cl)c3ccccc3N(C)c3ccccc32)cc1 | TK-10 renal | 64.3 |
| CC(C)(C)c1ccc(OC(=O)Nc2ccccc2)cc1 | TK-10 renal | 98.7 |

Challenge: Given the entry CCCCc1nc(Cl)c(C2CC(c3ccc(S(N)(=O)=O)cc3)=NN2c2cc(Cl)cc(Cl)c2)[nH]1 (centres undefined) , report its measured growth.
Response given: 84.6

Challenge: Given the entry COc1ccc(C(=O)OC2C(OC3C(O)COC(O[C@H]4C[C@H]5[C@@H]6CC=C7C[C@@H](O)CC[C@]7(C)[C@H]6CC[C@]5(C)[C@H]4[C@H](C)C(=O)CCC(C)C)C3OC(C)=O)OCC(O)C2O)cc1 (some centres undefined) , report its measured growth.
Response given: -20.1

Challenge: Given the entry C=C(COC(C)=O)[C@H]1CC/C(C)=C/CC/C(C)=C/CC[C@@]2(C)O[C@H]2C1 , report its measured growth.
Response given: 108

Challenge: Given the entry O=C1Nc2ccccc2/C1=C\c1nc(C2CCN(S(=O)(=O)c3ccc(F)cc3)CC2)n2ccccc12 , report its measured growth.
Response given: 60.1

====

Here, each record is paired with measured growth data.
system: MCF7 breast; experiment: NCI-60 one-dose screen, 48 h (100 = growth as untreated, 0 = no growth, -100 = all killed); conditions: 10 µM unless noted
This is part of a sample that, as a whole, favours compounds with a hit. Of some 83,000 tested, about 20% had one in any assay. Activity calls are given as the source filed them. The calls were made as follows: active = growth percent below 10; inactive = the rest.

// known answers, use as guide
| Molecule | growth |
| --- | --- |
| CCCCCCCC/C=C\CCCCCCCC(=O)OCCCCCC | 105% (inactive) |
| CCOCCNc1ccc(S(=O)(=O)c2ccc(N)cc2)cc1N | 113% (inactive) |
| C=CCN(CC#N)CC=C | 95% (inactive) |
| CCN(CC)CCCC(C)Nc1ccnc2ccc(Oc3ccccc3)cc12 (stereo unspecified) | 69% (inactive) |
| C/C(=N\NC(=O)CSc1nc2ccccc2c(=O)n1CCc1ccc(S(N)(=O)=O)cc1)c1ccc(Br)cc1 | 80.5% (inactive) |

Challenge: Given the entry O=P(O)(O)C(O)(Cc1cccnc1)P(=O)(O)O , report its measured growth.
Response given: 91.2% (inactive)

====

test system: MCF7 breast; experiment: NCI-60 one-dose screen, 48 h; settings: 10 µM unless noted
The panel holds about 83,000 compounds, 20% with a hit somewhere; the sample as a whole holds those more often. The source made the active and inactive calls. The calls were made as follows: active = growth percent below 10; inactive = the rest.
Choose one outcome from this list and give only that: 1.0 (active), 0.0 (inactive)

Reference set (4 entries):
| Compound | Assay system | Answer label |
| --- | --- | --- |
| COc1ccc(-c2cc(-c3cc4ccccc4oc3=O)n(-c3ccccc3)n2)cc1 | MCF7 breast | 0.0 |
| CC(C)=CC[C@@H]1CC2(CC=C(C)C)C(=O)C(OC3(C(=O)c4ccccc4)C(=O)C4(CC=C(C)C)C[C@@H](CC=C(C)C)C(C)(C)C(CC=C(C)C)(C4=O)C3=O)(C(=O)c3ccccc3)C(=O)C(CC=C(C)C)(C2=O)C1(C)C (some centres undefined) | MCF7 breast | 1.0 |
| CC1(C)OC2OC3C(CN)OC(c4ccccc4)OC3C2O1 (centres undefined) | MCF7 breast | 0.0 |
| O=c1c2cc(Cl)ccc2oc2ccc(OCCCCCN3CCCCC3)cc12 | MCF7 breast | 0.0 |

Challenge: Record request — test call for Nc1nc(N)c2cc(NCc3ccc(Cl)c(Cl)c3)ccc2n1
Response given: 1.0

Challenge: Record request — test call for O=C(/C=C/c1ccccc1)c1c[nH]c2ccccc2c1=O
Response given: 0.0

Challenge: Record request — test call for CCOC(=O)C1=C(C)NC(=S)NC1c1ccccc1 (centres undefined)
Response given: 0.0

Challenge: Record request — test call for O=C1/C=C/[C@@H](O)[C@@H]2C[C@@H](O)C[C@H]2/C=C/CCC[C@H]([C@@H](O)CO)O1
Response given: 0.0

Challenge: Record request — test call for O=C1N(Cc2ccccc2Cl)c2ccccc2C12NN=C(c1ccccc1)S2 (centres undefined)
Response given: 0.0
